# Target or test system: CDK6/CyclinD3 (Homo sapiens)
# Construct: purchased Carna 04-107
# Sequence (Q00534 whole entry): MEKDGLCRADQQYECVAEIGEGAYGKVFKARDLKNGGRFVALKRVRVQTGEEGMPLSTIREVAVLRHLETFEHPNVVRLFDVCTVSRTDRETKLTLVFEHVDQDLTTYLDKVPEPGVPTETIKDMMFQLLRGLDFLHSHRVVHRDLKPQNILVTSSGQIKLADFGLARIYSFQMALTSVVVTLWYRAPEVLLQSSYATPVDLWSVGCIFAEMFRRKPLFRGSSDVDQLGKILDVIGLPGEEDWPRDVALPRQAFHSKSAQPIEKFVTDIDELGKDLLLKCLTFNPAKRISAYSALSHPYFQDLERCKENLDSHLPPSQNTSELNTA
# Sequence (P30281 whole entry partner): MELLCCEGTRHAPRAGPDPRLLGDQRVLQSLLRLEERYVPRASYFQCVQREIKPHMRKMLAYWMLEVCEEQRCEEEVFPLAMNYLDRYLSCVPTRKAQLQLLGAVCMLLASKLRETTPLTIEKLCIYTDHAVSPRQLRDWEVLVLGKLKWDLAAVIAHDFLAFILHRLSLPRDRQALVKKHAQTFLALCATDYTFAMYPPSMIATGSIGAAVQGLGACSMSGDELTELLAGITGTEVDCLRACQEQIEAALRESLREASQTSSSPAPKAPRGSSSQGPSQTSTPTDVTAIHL
# Procedure details: Assay for inhibition of CDK6/CyclinD3 (Caliper microfluidic kinase assay)
# Format: biochemical
# Condition context: CDK6/CyclinD3, 300 μM ATP
pIC50: −log10 of the molar value.
Assay metric: pIC50

{"columns": ["Compound", "Result"],
 "data": [
  ["CNC1CCN(c2ccc(Nc3nccc(-c4ccn5ncc(C(C)C)c5c4)n3)nc2)C(=O)C1 (single isomer, unassigned) [Synthetic Example 205]", "> 8.00"],
  ["Cc1cnc(Nc2ccc(N3CCC(N(C)C)CC3=O)cn2)nc1-c1cc2c(ncn2C(C)C)c(F)n1 (stereo not drawn) [compound 279]", "7.00 to 8.00"],
  ["CC(C)c1cnn2ccc(-c3nc(Nc4ccc(S(N)(=O)=O)cc4)ncc3F)cc12 [compound 27]", "6.00 to 7.00"],
  ["COc1nc(-c2ccnc(Nc3ccc(N4CCC(C)(N)CC4)cn3)n2)cc2c1ncn2C(C)C [compound 118]", "7.00 to 8.00"],
  ["CC(C)c1cnn2ccc(-c3ccnc(Nc4ccc(C(=O)N5CCC(NC6CC6)C5)cc4)n3)cc12 (stereo not drawn) [compound 191]", "7.00 to 8.00"],
  ["CCN1CCN(Cc2ccc(Nc3ncc(F)c(-c4cc5c(C(C)C)n(C)nc5cn4)n3)nc2)CC1 [Synthetic Example 58]", "< 6.00"],
  ["CC(C)c1cnn2ccc(-c3ccnc(Nc4ccc(N5CCN(C6CCNCC6)CC5=O)cn4)n3)cc12 [compound 41]", "7.00 to 8.00"],
  ["COc1nc(-c2ccnc(Nc3ccc(N4CCNCC4=O)nc3)n2)cc2c1ncn2C(C)C [compound 119]", "7.00 to 8.00"],
  ["CC(C)c1cnn2ccc(-c3ccnc(Nc4ccc(N5CCN(C6COC6)CC5=O)cn4)n3)cc12 [compound 234]", "7.00 to 8.00"],
  ["CC(C)c1cnn2ccc(-c3ccnc(Nc4ccc(N5CCN(CCO)CC5=O)cn4)n3)cc12 [compound 237]", "7.00 to 8.00"],
  ["CC1(N)CCN(c2ccc(Nc3nccc(-c4cc(F)c5c(c4)C(C)(C)CO5)n3)nc2)C(=O)C1 (stereo not drawn) [compound 258]", "7.00 to 8.00"],
  ["CC(C)c1cnn2ccc(-c3ccnc(Nc4ccc(N5CC(N(C)C)CCC5=O)cn4)n3)cc12 (stereo not drawn) [compound 156]", "6.00 to 7.00"],
  ["CCN1CCC(=O)N(c2ccc(Nc3ncc(F)c(-c4ccn5ncc(C(C)C)c5c4)n3)nc2)CC1 [compound 47]", "7.00 to 8.00"],
  ["CC(C)c1cnn2ccc(-c3nc(Nc4ccc(N5CCN(CCO)CCC5=O)cn4)ncc3F)cc12 [Synthetic Example 52]", "7.00 to 8.00"],
  ["CC(C)c1cnn2ccc(-c3nc(Nc4ccc(N5CCC(N6CC(F)(F)C6)CC5=O)cn4)ncc3F)cc12 (stereo not drawn) [compound 158]", "7.00 to 8.00"]
]}

----------
# Target or test system: CDK2/CyclinE1 (Homo sapiens, UniProt P24941)
# Construct: purchased SignalChem C29-18G
# Procedure details: Assay for inhibition of CDK2/CyclinE1 (Caliper microfluidic kinase assay)
# Type: biochemical
# Condition context: CDK2/CyclinE1, 100 μM ATP; read-out: CDK2 IC50

{"columns": ["Compound", "IC50"],
 "data": [
  ["CCNC1CCN(c2ccc(Nc3nccc(-c4ccn5ncc(C(C)C)c5c4)n3)nc2)C(=O)C1 (stereo not shown) [compound 209]", "< 10 nM"],
  ["CC(C)c1cnn2ccc(-c3nc(Nc4ccc(N5CCC(NC6CC(F)(F)C6)CC5=O)cn4)ncc3F)cc12 (stereo not shown) [compound 159]", "10 to 100 nM"],
  ["CC(C)c1cnn2ccc(-c3ccnc(Nc4ccc(N5CCC(N(C)CCF)CC5=O)cn4)n3)cc12 (stereo not shown) [compound 170]", "10 to 100 nM"],
  ["CC(C)n1cnc2c1CN(c1ccnc(Nc3ccc(N4CCC(N(C)C)CC4=O)cn3)n1)CC2 (stereo not shown) [compound 245]", "10 to 100 nM"],
  ["CC(C)c1cnn2ccc(-c3ccnc(Nc4ccc(N5CCNCC5=O)cn4)n3)cc12 [compound 37]", "< 10 nM"],
  ["CCN1CCC(COc2cc(Nc3ncc(F)c(-c4ccn5ncc(C(C)C)c5c4)n3)ccn2)CC1 [compound 45]", "< 10 nM"],
  ["CC(C)c1cnn2ccc(-c3ccnc(Nc4ccc(N5CCC(N6CC(F)C6)CC5=O)cn4)n3)cc12 (stereo not shown) [compound 162]", "10 to 100 nM"],
  ["CC(C)c1cnn2ccc(-c3ccnc(Nc4ccc(N5CCN(C6CNC6)CC5=O)cn4)n3)cc12 [Synthetic Example 40]", "10 to 100 nM"],
  ["CC(C)N1CCN(c2ccc(Nc3ncc(F)c(N4CCc5ncn(C(C)C)c5C4)n3)nc2)CC1 [compound 250]", "100 to 1000 nM"],
  ["Cc1nn2ccc(-c3ccnc(Nc4ccc(S(N)(=O)=O)nc4)n3)cc2c1C(C)C [compound 182]", "< 10 nM"],
  ["CC(C)c1cnn2ccc(-c3ccnc(Nc4ccc(N5CCN(S(C)(=O)=O)CCC5=O)cn4)n3)cc12 [compound 236]", "10 to 100 nM"],
  ["CC(C)n1cnc2c1CN(c1ccnc(Nc3ccc(N4CCC(C)(N)CC4=O)cn3)n1)CC2 (stereo not shown) [compound 244]", "10 to 100 nM"],
  ["CC(C)c1cnn2ccc(-c3ccnc(Nc4ccc(N5CCC(N(C)C)CC5=O)cn4)n3)cc12 (stereo not shown) [Synthetic Example 16]", "10 to 100 nM"],
  ["COc1nc(-c2ccnc(Nc3ccc(N4CCN(C5COC5)CC4=O)cn3)n2)cc2c1ncn2C(C)C [compound 137]", "100 to 1000 nM"],
  ["CC(C)c1cnn2ccc(-c3ccnc(Nc4ccc(C(=O)N5CC(O)C5)cc4)n3)cc12 [compound 153]", "< 10 nM"],
  ["CC1(C)COc2c(F)cc(-c3ccnc(Nc4ccc(N5CCCC(N)C5=O)nc4)n3)cc21 (stereo not shown) [compound 264]", "10 to 100 nM"],
  ["CC(C)(C)c1cnn2ccc(-c3ccnc(Nc4ccc(N5CCCC(N)C5=O)cc4F)n3)cc12 (stereo not shown) [compound 232]", "< 10 nM"],
  ["Cc1nc2c(F)nc(-c3ccnc(Nc4ccc(N5CCN(C(C)C)CC5)cn4)n3)cc2n1C(C)C [compound 269]", "> 1000 nM"],
  ["CC(C)n1cnc2c(F)nc(-c3ccnc(Nc4ccc(N5CCCNC5=O)cc4)n3)cc21 [compound 282]", "< 10 nM"],
  ["CC(C)c1cnn2ccc(-c3ccnc(Nc4ccc(N5CCCC(N)C5=O)cc4F)n3)cc12 (stereo not shown) [compound 223]", "10 to 100 nM"],
  ["CC(C)c1cnn2ccc(-c3ccnc(Nc4ccc(N5CC(N(C)C)CCC5=O)cn4)n3)cc12 (stereo not shown) [compound 156]", "10 to 100 nM"],
  ["CNC(=O)c1ccc(Nc2nccc(-c3ccn4ncc(C(C)C)c4c3)n2)cc1 [compound 166]", "< 10 nM"],
  ["CC(C)n1cnc2c(F)nc(-c3ccnc(Nc4ccc(N5CCC(N(C)C)C5=O)cc4)n3)cc21 (stereo not shown) [compound 268]", "10 to 100 nM"],
  ["CC(C)c1cnn2ccc(-c3nc(Nc4ccc(N5CCN(C6CNC6)CCC5=O)cn4)ncc3F)cc12 [compound 42]", "10 to 100 nM"],
  ["COc1nc(-c2ccnc(Nc3ccc(N4CCNCC4=O)c(F)c3)n2)cc2c1ncn2C(C)C [compound 116]", "10 to 100 nM"],
  ["CC(C)c1cnn2ccc(-c3nc(Nc4ccc(S(N)(=O)=O)cc4)ncc3F)cc12 [compound 27]", "< 10 nM"],
  ["CC(C)c1cnn2ccc(-c3nc(Nc4ccc(N5CCOCC5=O)c(F)c4)ncc3F)cc12 [compound 26]", "< 10 nM"],
  ["CC(C)c1cnn2ccc(-c3nc(Nc4ccc(N5CCNCCC5=O)cn4)ncc3F)cc12 [compound 34]", "10 to 100 nM"],
  ["CC(C)n1cnc2c(F)nc(-c3ccnc(Nc4ccc(N5CCCC(N(C)C)C5=O)cn4)n3)cc21 (stereo not shown) [compound 283]", "> 1000 nM"],
  ["CNC1CCCN(c2ccc(Nc3ncc(Cl)c(-c4cc5c(ncn5C(C)C)c(F)n4)n3)cc2)C1=O (stereo not shown) [compound 299]", "100 to 1000 nM"],
  ["CC(C)n1cnc2c(F)nc(-c3nc(Nc4ccc(N5CCCC(N(C)C)C5=O)cn4)ncc3F)cc21 (stereo not shown) [compound 300]", "> 1000 nM"]
]}
